// human CTGF koff lookup, one value per entry
Tgt: T1, human CTGF (Homo sapiens, UniProt P29279)
T1 construct: purchased Creative Biomart
Test Protocol: SPR binding kinetics and affinity, human CTGF
Assay Conditions: 25° C., 1:1 binding model
Response body: numeric value in s⁻¹, unit text excluded.

Input: Look at this molecule and give its reported human CTGF koff. SEQ ID NO: 3: parent CTGF-binding hNGAL lipocalin mutein (protein, lipocalin mutein) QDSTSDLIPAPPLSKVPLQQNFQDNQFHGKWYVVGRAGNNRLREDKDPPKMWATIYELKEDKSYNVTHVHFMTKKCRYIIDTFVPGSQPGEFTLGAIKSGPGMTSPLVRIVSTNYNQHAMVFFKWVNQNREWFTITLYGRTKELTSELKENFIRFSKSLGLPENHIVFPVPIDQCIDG
Output: 0.00749

Input: Tell me the measured human CTGF koff of SEQ ID NO: 9: parent CTGF-binding hNGAL lipocalin mutein (protein, lipocalin mutein) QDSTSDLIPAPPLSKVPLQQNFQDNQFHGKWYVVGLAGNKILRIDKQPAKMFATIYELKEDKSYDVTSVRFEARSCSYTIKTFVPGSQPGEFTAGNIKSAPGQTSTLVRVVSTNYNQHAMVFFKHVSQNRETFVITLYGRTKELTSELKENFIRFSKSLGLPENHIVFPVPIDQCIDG , please.
Output: 0.00102

Kindly consider the entry below.
Input: Query (molecule): SEQ ID NO: 23: optimized CTGF-binding hNGAL lipocalin mutein (protein, lipocalin mutein) QDSTSDLIPAPPLSKVPLQQNFQDNQFQGKWYVVGVAGNAILRPDKQPAKMFATIYELKEDKSYDVTSVRFEAKSCKYTIKTFVPGSQPGEFTSGQIKSAPGQTSTLVRVVSTNYNQHAMVFFKHVSQNREIFVITLYGRTKELTSELKENFIRFSKSLGLPENHIVFPVPIDQCIDG ; field requested: human CTGF koff
Output: 9.42e-06
